Values compiled from patent US10800791B2.

- target.desc: UniProt:Q00955
- Sequence (Q00955 whole entry): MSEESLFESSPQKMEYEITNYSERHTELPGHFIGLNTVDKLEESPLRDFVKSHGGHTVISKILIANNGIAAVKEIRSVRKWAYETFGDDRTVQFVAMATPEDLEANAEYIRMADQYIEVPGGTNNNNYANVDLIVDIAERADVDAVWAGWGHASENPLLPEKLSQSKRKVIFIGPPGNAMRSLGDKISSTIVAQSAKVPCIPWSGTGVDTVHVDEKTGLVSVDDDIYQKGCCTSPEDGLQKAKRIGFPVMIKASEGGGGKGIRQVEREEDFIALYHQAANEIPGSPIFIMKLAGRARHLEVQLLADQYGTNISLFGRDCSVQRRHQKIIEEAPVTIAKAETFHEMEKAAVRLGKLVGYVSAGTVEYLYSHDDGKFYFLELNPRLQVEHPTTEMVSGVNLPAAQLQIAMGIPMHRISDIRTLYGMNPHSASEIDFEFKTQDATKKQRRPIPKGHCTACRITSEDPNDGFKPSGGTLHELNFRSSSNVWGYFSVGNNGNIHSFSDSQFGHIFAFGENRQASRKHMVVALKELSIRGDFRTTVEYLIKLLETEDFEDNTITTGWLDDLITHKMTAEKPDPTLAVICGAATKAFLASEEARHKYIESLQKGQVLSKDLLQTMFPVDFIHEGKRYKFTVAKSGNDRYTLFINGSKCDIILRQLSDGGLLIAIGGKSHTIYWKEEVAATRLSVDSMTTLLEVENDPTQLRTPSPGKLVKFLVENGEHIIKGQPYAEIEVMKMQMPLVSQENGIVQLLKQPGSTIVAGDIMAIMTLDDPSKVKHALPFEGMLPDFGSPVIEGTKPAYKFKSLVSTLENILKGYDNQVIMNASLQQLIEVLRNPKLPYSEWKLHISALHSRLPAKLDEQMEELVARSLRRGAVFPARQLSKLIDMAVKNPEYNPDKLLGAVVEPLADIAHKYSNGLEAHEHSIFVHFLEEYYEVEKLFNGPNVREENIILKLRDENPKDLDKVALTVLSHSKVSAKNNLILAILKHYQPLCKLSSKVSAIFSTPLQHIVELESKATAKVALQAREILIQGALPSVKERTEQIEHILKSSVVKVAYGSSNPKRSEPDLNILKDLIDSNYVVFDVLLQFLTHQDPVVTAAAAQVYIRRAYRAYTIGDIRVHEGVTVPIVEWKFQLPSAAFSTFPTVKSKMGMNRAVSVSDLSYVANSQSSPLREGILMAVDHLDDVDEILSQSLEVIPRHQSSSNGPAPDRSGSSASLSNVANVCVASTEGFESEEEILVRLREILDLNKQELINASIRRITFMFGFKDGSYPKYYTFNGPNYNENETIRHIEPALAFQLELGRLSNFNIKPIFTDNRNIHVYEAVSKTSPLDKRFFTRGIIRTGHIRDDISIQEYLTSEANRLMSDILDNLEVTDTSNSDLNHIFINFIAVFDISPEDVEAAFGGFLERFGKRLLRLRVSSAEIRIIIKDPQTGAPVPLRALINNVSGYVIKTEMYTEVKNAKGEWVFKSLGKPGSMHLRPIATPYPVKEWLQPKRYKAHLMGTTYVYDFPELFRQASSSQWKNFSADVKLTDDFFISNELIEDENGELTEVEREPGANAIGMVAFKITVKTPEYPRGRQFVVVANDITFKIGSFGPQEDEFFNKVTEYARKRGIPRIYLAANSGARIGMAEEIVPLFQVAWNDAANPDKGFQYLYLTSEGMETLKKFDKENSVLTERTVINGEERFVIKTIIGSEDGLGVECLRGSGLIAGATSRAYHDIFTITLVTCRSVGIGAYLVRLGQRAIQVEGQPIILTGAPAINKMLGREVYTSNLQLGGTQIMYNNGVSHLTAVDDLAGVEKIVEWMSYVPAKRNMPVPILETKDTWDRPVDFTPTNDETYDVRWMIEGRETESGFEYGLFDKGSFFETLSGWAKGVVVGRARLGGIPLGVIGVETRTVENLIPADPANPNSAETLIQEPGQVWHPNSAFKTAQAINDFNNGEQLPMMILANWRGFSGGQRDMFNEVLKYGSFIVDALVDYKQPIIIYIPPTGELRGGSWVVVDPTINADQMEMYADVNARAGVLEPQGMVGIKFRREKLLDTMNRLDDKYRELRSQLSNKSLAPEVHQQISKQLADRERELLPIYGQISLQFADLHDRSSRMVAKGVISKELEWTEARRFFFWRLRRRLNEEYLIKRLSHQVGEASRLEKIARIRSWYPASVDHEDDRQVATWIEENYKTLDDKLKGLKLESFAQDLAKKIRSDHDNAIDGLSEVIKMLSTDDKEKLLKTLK
- measurement.setup: read-out: fACC2 (in vitro ACC2 Inhibition Assay, IC50); Table 2b, additional results; ADP-Glo, 5 nM ACC2, 20 μM ATP, 20 μM acetyl-CoA
Reported IC50 values follow for various molecules

molecule	target.desc	IC50
COc1ccc(F)cc1[C@@H](O)Cn1c(=O)n([C@H](C)C(=O)N(C)C(C)C)c(=O)c2c(C)c(-n3nccn3)sc21	UniProt:Q00955	0.3 to 1 nM
COc1ccc(F)cc1[C@H](Cn1c(=O)n([C@@H](C)C(N)=O)c(=O)c2c(C)c(-n3nccn3)sc21)OCC(C)(C)C#N	UniProt:Q00955	1 to 5 nM
COc1ccc(F)cc1CCn1c(=O)n(C(C)(C)C(=O)NC(C)C)c(=O)c2c(C)c(-n3nccn3)sc21 [Compound I-266]	UniProt:Q00955	1 to 5 nM
CCc1ccc(F)cc1[C@@H](O)Cn1c(=O)n(C(C)(C)C(N)=O)c(=O)c2c(C)c(-n3nccn3)sc21	UniProt:Q00955	1 to 5 nM
CC(=O)Oc1ccccc1[C@H](Cn1c(=O)n(C(C)(C)C(=O)NC(C)C)c(=O)c2c(C)c(-n3nccn3)sc21)OCCC#N	UniProt:Q00955	0.3 to 1 nM
COc1ccc(F)cc1[C@H](Cn1c(=O)n(C(C)(C)C(=O)OC(C)C)c(=O)c2c(C)c(-n3nccn3)sc21)OCCO	UniProt:Q00955	1 to 5 nM
COCCOc1ccc(F)cc1[C@H](Cn1c(=O)n(C(C)(C)C(=O)NC(C)C)c(=O)c2c(C)c(-n3nccn3)sc21)OC(C)C	UniProt:Q00955	1 to 5 nM
COc1ccc(F)cc1[C@H](Cn1c(=O)n(C(C)(C)C(=O)NC2CCCCC2)c(=O)c2c(C)c(-n3nccn3)sc21)OCCC(C)=O	UniProt:Q00955	1 to 5 nM
COc1ccc(F)cc1[C@H](Cn1c(=O)n(C(C)(C)C(=O)NC2CCC2)c(=O)c2c(C)c(-n3nccn3)sc21)OCCC(C)=O	UniProt:Q00955	0.3 to 1 nM
COc1ccc(F)cc1[C@H](Cn1c(=O)n(C(C)(C)C(N)=O)c(=O)c2c(C)c(-n3nccn3)sc21)OC[C@H](C)C#N	UniProt:Q00955	0.3 to 1 nM
COc1ccc(F)cc1[C@H](Cn1c(=O)n(C(C)(C)C(=O)NC(C)C)c(=O)c2c(C)c(-n3nccn3)sc21)OC[C@H](C)C(=O)O	UniProt:Q00955	0.3 to 1 nM
COc1ccc(F)cc1[C@H](Cn1c(=O)n([C@@H](C)C(N)=O)c(=O)c2c(C)c(-n3nccn3)sc21)OCC(C)(C)O	UniProt:Q00955	0.3 to 1 nM
COc1ccc(F)cc1[C@H](Cn1c(=O)n(CC(=O)NC(C)C)c(=O)c2c(C)c(-n3nccn3)sc21)OC(C)C	UniProt:Q00955	1 to 5 nM

====

Reported IC50 values follow for various compounds
- target.desc: UniProtKB O00763
- Sequence (O00763 whole entry): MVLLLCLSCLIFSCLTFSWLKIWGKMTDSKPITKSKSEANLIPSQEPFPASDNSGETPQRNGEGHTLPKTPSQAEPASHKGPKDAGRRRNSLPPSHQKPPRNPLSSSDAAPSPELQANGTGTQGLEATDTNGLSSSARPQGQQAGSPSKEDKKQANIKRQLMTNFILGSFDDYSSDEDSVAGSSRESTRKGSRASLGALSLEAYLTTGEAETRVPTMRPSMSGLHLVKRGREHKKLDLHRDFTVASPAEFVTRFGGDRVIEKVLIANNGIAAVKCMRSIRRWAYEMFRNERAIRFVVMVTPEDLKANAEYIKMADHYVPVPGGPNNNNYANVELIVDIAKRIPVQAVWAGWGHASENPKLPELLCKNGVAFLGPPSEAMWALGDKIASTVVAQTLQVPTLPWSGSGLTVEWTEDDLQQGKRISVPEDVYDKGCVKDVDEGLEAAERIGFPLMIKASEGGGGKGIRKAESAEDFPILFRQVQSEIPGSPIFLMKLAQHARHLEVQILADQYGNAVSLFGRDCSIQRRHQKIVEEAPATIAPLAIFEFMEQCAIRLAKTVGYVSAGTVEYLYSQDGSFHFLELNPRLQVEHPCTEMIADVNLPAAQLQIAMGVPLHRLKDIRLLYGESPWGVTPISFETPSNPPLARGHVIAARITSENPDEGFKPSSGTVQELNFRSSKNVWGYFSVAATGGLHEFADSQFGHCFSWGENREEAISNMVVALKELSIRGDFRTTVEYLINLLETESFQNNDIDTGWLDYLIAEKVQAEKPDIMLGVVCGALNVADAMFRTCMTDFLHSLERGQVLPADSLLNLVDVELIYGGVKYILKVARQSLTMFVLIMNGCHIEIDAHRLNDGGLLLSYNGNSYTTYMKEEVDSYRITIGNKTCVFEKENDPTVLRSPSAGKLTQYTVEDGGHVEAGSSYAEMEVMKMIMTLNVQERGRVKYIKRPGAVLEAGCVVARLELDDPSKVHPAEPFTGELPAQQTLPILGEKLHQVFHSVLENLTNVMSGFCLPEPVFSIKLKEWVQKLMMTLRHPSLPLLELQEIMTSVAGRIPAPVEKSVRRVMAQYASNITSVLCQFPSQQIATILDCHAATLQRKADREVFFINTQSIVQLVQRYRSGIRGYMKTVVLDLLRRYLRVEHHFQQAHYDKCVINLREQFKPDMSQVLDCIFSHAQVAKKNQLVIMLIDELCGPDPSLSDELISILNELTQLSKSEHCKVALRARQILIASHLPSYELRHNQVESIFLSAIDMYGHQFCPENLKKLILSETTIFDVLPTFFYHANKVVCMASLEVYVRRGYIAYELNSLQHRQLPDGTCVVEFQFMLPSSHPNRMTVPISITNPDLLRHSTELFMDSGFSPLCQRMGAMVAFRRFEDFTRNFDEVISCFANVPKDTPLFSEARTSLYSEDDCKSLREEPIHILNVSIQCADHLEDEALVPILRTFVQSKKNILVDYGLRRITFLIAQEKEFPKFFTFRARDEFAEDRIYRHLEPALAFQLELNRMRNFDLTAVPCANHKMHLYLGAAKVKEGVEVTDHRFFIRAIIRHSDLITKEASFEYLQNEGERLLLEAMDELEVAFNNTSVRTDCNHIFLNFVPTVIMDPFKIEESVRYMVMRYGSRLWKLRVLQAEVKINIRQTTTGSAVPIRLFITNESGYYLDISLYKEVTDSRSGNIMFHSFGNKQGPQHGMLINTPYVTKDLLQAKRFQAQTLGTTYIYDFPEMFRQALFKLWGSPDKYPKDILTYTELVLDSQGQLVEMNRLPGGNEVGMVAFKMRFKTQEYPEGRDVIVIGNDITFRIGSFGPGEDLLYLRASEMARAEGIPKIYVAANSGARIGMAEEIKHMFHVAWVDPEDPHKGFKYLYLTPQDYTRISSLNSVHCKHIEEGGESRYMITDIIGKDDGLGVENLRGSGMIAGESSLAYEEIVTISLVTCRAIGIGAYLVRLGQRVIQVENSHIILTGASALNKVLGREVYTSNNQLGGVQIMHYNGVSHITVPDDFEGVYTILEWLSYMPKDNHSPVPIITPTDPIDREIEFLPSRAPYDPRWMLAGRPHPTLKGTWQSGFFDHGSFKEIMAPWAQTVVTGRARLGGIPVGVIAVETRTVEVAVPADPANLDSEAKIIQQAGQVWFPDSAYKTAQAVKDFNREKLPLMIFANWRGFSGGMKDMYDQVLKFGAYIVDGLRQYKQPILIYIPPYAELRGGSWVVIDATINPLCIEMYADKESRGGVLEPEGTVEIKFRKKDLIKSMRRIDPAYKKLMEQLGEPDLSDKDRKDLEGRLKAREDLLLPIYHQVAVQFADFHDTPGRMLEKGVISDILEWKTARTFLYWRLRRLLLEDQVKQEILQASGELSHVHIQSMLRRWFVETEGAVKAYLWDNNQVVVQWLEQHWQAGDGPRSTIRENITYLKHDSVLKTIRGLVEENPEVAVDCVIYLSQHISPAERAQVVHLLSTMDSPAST
- protocol.description: In vitro ACC inhibition assay (ADP-Glo), hACC2
- Assay type: biochemical
- measurement.setup: Table 2a, 5 nM ACC2, 20 μM ATP, 20 μM acetyl-CoA
reported.endpoint: IC50

compound	target.desc	reported.endpoint	value.measured
COc1ccc(F)cc1[C@H](Cn1c(=O)n([C@H](C)C(=O)N(C)C(C)C)c(=O)c2c(C)c(-n3nccn3)sc21)OC1CCC(=O)CC1	UniProtKB O00763	IC50	5 to 10 nM
COc1ccc(F)cc1[C@H](Cn1c(=O)n(C(C)(C)C(=O)N2CC=CC2)c(=O)c2c(C)c(-n3nccn3)sc21)OC[C@@H](C)O	UniProtKB O00763	IC50	5 to 10 nM
COc1ccc(F)cc1[C@H](Cn1c(=O)n([C@H](C)C(=O)NC(C)C)c(=O)c2c(C)c(-n3nccn3)sc21)OC(C)C	UniProtKB O00763	IC50	5 to 10 nM
CCNC(=O)C(C)(C)n1c(=O)c2c(C)c(-n3nccn3)sc2n(C[C@H](OC2CCOCC2)c2cc(F)ccc2OC)c1=O	UniProtKB O00763	IC50	5 to 10 nM
COCCO[C@@H](Cn1c(=O)n(C(C)(C)C(=O)NC2CCC2)c(=O)c2c(C)c(-n3nccn3)sc21)c1cc(F)ccc1OC [Compound I-100]	UniProtKB O00763	IC50	1 to 5 nM
CCNC(=O)C(C)(C)n1c(=O)c2c(C)c(-n3nccn3)sc2n(C[C@H](OCCC#N)c2cc(F)ccc2OC)c1=O	UniProtKB O00763	IC50	5 to 10 nM
COCCO[C@@H](Cn1c(=O)n([C@@H](C)C(=O)NC(C)C)c(=O)c2c(C)c(-n3nccn3)sc21)c1cc(F)ccc1OC [Compound I-83]	UniProtKB O00763	IC50	> 40 nM
COc1ccc(F)cc1[C@H](Cn1c(=O)n(C(C)(C)C(=O)NC(C)C)c(=O)c2c(C)c(-n3nccn3)sc21)O[C@H]1CC[C@H](C#N)CC1	UniProtKB O00763	IC50	1 to 5 nM
COc1ccc(F)cc1[C@H](Cn1c(=O)n(C(C)(C)C(=O)NC(C)C)c(=O)c2c(C)c(-n3nccn3)sc21)OCCC(N)=O	UniProtKB O00763	IC50	10 to 40 nM
COc1ccc(F)cc1[C@H](Cn1c(=O)n(C(C)(C)C(=O)N2CCCC2)c(=O)c2c(C)c(-n3nccn3)sc21)OC[C@H](C)O	UniProtKB O00763	IC50	5 to 10 nM
COc1ccc(F)cc1[C@H](Cn1c(=O)n(C(C)(C)C(=O)OC(C)C)c(=O)c2c(C)c(-n3nccn3)sc21)OCCO	UniProtKB O00763	IC50	1 to 5 nM
COc1ccc(F)cc1[C@H](Cn1c(=O)n([C@@H](C)C(=O)N(C)C(C)C)c(=O)c2c(C)c(-n3nccn3)sc21)OCC(C)(C)O	UniProtKB O00763	IC50	10 to 40 nM
